- tested.system: Regulator of G-protein signaling 19 (Homo sapiens) (UniProt P49795)
- Sequence (P49795 whole entry, looked up): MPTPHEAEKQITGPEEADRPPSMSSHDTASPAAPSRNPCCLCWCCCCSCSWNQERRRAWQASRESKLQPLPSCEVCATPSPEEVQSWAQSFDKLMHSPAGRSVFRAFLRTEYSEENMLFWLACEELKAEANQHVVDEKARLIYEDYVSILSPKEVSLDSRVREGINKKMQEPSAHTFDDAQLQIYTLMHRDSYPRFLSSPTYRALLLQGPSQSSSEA
- measurement.notes: analogs regulating RGS19 interaction with Gαo – biochemical, SAR compounds, multiplexed bead flow cytometry, SAR follow-up (AID 2311)
- condition.parameters: Bead-bound RGS19 and AF488-Galphao binding, measured here: Ki calculated from EC50
Give pKi for every item shown.
Numbers only, as −log10 of the molar value.

CCN=c1scc(C)n1/N=C/c1ccc(O)c(O)c1O | 6.46
O=C(Cc1csc(N2CCOCC2)n1)N/N=C/c1ccc(O)c(O)c1O | 6.12
CCOC(=O)c1sc(NC(=O)CSc2nnc(Cc3ccccc3)o2)c(C#N)c1C | 6.85
O=C(NCCCN1CCOCC1)c1sc2cc([N+](=O)[O-])ccc2c1Cl | 6.34
CN=c1scc(C)n1/N=C/c1ccc(O)c(O)c1O | 6.70

State the recorded pKi for every item in the following list.
1. Cc1cccc(N2CCN(C(=O)Cn3sc4nc(C)cc(C)c4c3=O)CC2C)c1 (stereo not drawn)
2. CC1(C)OC(=O)C(=Cc2ccc(-c3ccc(S(N)(=O)=O)cc3)o2)C(=O)O1
3. Cc1cc(Cl)ccc1N=c1ssnc1Cl
4. NS(=O)(=O)c1ccc(N/N=C/c2ccc(O)c(O)c2O)c([N+](=O)[O-])c1
5. Cc1cccc(N2CCN(C(=O)COc3nsc4nc(C)cc(C)c34)CC2C)c1 (stereo not drawn)
6. CN1CCN(C2=C(Cl)C(=O)C(c3cnc(N4CCCCC4)s3)=C(Cl)C2=O)CC1
7. Cc1[nH]n(-c2ccccc2)c(=S)c1C=NCCCN=Cc1c(C)[nH]n(-c2ccccc2)c1=S
8. O=C1C(Cl)=C(N2CCCCC2)C(=O)C(Cl)=C1c1cnc(N2CCCCC2)s1

Result block:
[7.05, 6.64, 6.96, 7.00, 6.26, 7.52, 7.30, 7.10]
